- assay-explanation: Solubility in gastric juice or intestinal juice model fluid (precipitation method using DMSO)
- Assay type: physicochemical
- test-settings: pH 1.2, simulated gastric fluid, kinetic from dmso stock, 1st fluid for Disintegration Test of Japanese Pharmacopoeia (pH: 1.2), room temperature, read-out: Solubility (μg/mL) 1st fluid
measurement-label: solubility at 24 h (µg/mL)

structure-string	measurement-label	number
COc1cc(OCc2cccnc2C(F)(F)F)ccc1-c1cnc(-c2ccc(F)nc2)[nH]1	solubility at 24 h	12

[1] COc1cc(OCc2ncc(C(F)(F)F)cc2F)ccc1-c1[nH]c(C2CCC(F)(F)CC2)nc1Br
[2] COc1cc(OCc2cncc(C(F)(F)F)c2)ccc1-c1[nH]c(-c2ccc(F)nc2)nc1Cl
Exam item: Would you kindly point out which of 1 and 2 has the smaller solubility at 24 h figure? Please identify the chosen entry by its label.
Marked response: 2

[I] COc1cc(OCc2ncc(C(F)(F)F)cc2F)ccc1-c1[nH]c(-c2ccc(Cl)nc2)nc1Cl
[II] COc1cc(OCc2ccc(C(F)(F)F)nc2)ccc1-c1c[nH]c(-c2ccc(F)cn2)n1
Exam item: I'd appreciate it if you could identify which of I and II has the greater solubility at 24 h. Please identify the chosen entry by its label.
Marked response: I
